Here, each record is paired with measured TGI data.
System: HOP-62 NSCLC
Experiment: NCI tumour cell line growth inhibition, 48 h

[[record]]
compound = "O=c1c2cc([N+](=O)[O-])cnc2sn1-c1ccc(Oc2ccccc2)cc1"
measure_name = "TGI"
experimental_result = "> 100 µM"

[[record]]
compound = "C[C@]12CC[C@H]3[C@@H](CC=C4C[C@@H](O)CC[C@@]43C)[C@@H]1C/C(=C\\c1cccc(OCCCn3ccnc3)c1)[C@@H]2O"
measure_name = "TGI"
experimental_result = "32.7 µM"

[[record]]
compound = "CC(=O)C1(c2ccccc2)CCCN(C)CC1 (stereo unspecified)"
measure_name = "TGI"
experimental_result = "> 100 µM"

[[record]]
compound = "[N-]=[N+]=Nc1cc(=O)n(-c2ccccc2)c(=O)n1-c1ccccc1"
measure_name = "TGI"
experimental_result = "> 100 µM"


I'd like to know its TGI. The compound in question is CC(C)(C)c1cc(N=NC(=S)NCc2ccccc2)cc(C(C)(C)C)c1O
> 100 µM
